- assay protocol: ATG_PPRE_CIS: Attagene CIS-FACTORIAL HepG2 Assay for human Peroxisome Proliferator-activated Response Element (PPRE) (AID 2282958)
- measurement context: HepG2 PPRE cis-element reporter, Attagene transcription factor profiling; actives raise or lower the signal
Active and inactive are the calls of the source. How the source made its calls: active means hit-call score of the fitted dose curve at least 0.9, where 1 is the maximum; inactive means score below 0.9.
API: response.call in 1 (yes) (active), 0 (no) (inactive)

Previously resolved entries follow.
compound=CCN(CC)CC label_value="0 (no)"
compound=O=C(Nc1ccc(Cl)c(Cl)c1)c1cc(Cl)cc(Cl)c1O label_value="1 (yes)"

(Q) GET /call?item= CCCCCCCCCCCCOC(=O)c1cc(O)c(O)c(O)c1 returns the recorded outcome of this test.
(A) 0 (no)

(Q) GET /call?item= Cc1ccc(C)c(S(=O)(=O)O)c1 returns the recorded outcome of this test.
(A) 0 (no)

(Q) GET /call?item= O=C1c2ccc(O)c(O)c2C(=O)c2c(O)ccc(O)c21 returns the recorded outcome of this test.
(A) 0 (no)

(Q) GET /call?item= CC(=O)Nc1ccc(O)cc1 returns the recorded outcome of this test.
(A) 0 (no)

(Q) GET /call?item= CCOC=C(C(=O)OCC)C(=O)OCC returns the recorded outcome of this test.
(A) 0 (no)

(Q) GET /call?item= CNNCc1ccc(C(=O)NC(C)C)cc1 returns the recorded outcome of this test.
(A) 0 (no)

(Q) GET /call?item= CC1CCC(C(=O)O)CC1 (centres undefined) returns the recorded outcome of this test.
(A) 0 (no)

// data source = PubChem BioAssay (EPA / NIEHS)
